Assay: Preparation of ink and evaluation of solubility in low polar solvents (saturated solution, absorption maximum, εC)
Type: physicochemical
Conditions: ISOPAR M, saturated solution, room temperature
Property Name: Solubility (% by mass)
Just the number please, in % by mass, no unit attached.

Here's what some known entries look like.
Molecule	Unit String	Reported Value
CNc1ccc(Nc2ccc(C)cc2)c2c1C(=O)c1ccccc1C2=O [Comparative Compound 1, C.I. Solvent Blue 11, reference compound]	% by mass	0.02
CCCCC(CC)CNc1ccc(NCC(CC)CCCC)c2c1C(=O)c1ccccc1C2=O (centres unmarked)	% by mass	4.2
CCCCC(CC)CNc1ccc(NCC(CC)CCCC)c2c1C(=O)c1ccc(C(=O)OCCC)cc1C2=O (centres unmarked)	% by mass	4.5

Kindly consider the entry below.
Ask | Fill in reported Solubility for this entry: CCCCC(CC)CNc1ccc(NCC(CC)CCCC)c2c1C(=O)c1ccc(C(=O)OCC(C)C)cc1C2=O (centres unmarked)
Reply | 5.1
